Target: NADPH oxidase 4 (Homo sapiens)
Test: NOX4-dependent H2O2 signal modulators, primary screen, NOX inhibitor project, cell-based, HEK293-NOX4, tetracycline-induced, Amplex Red fluorescence (AID 1160)
Conditions: 45 min, higher = more signal, called active from +8 up or from −8 down
The threshold is inclusive: z-score of exactly -0.7 counts as satisfied; values below receive not satisfied.

In: Dear colleague, could you confirm whether "CC(C)N1C(=O)[C@@]2(Cc3ccccc31)c1ccccc1C(=O)N(Cc1ccccc1Cl)[C@H]2c1ccc(CO)cc1" has z-score at or above -0.7?
Out: satisfied

In: Dear colleague, could you confirm whether CC(C)C(O)C1C=CC2C(=O)N(c3ccccc3)C(=O)C2N1Nc1ccc([N+](=O)[O-])cc1 (stereo not drawn) has z-score at or above -0.7?
Out: not satisfied

In: Dear colleague, could you confirm whether "COC(=O)[C@@]1(Cc2ccc(OC)cc2)[C@H]2c3cc(C(=O)N4CCCC4)n(CCN4CNCC4=O)c3C[C@H]2CN1C(=O)c1ccccc1" has z-score at or above -0.7?
Out: not satisfied

In: Dear colleague, could you confirm whether "C=CC[C@@]12N=C(c3ccc(OCCCO)cc3)O[C@@H]1c1ccccc1N(C)C2=O" has z-score at or above -0.7?
Out: not satisfied

In: Dear colleague, could you confirm whether CN1C(=O)C2C=CC(C(O)C#Cc3ccccc3)N(N3CCCCC3)C2C1=O (stereo not drawn) has z-score at or above -0.7?
Out: satisfied

In: Dear colleague, could you confirm whether "COc1ccc(CCNC(=O)[C@@]2(Sc3ccc(C)cc3)CC(=O)N(C(C)C)[C@@H]2c2ccc(CO)cc2I)cc1" has z-score at or above -0.7?
Out: satisfied

In: Dear colleague, could you confirm whether OCCCC1=CC(c2cccs2)N(Cc2cc3c(cc2Br)OCO3)CC1 (stereo not drawn) has z-score at or above -0.7?
Out: satisfied

* * *

Assay: E. coli growth modulation, two-sided OD650, primary screen, E. coli filamentation project, strain DRC41, 24 h (AID 1093);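 further: MC1000 strain lacking acrAB efflux and sulA so SOS filamentation is blocked; test concentration not given here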
Details: OD650, 24 h, higher = more signal, called active from +8 up or from −8 down
Please provide measured z-score for the entries that follow.
Lab note: write the figure by itself, no unit.

Per the record, C=CCC(OC(C)=O)[C@@H]1[C@@H](N(Cc2cc3ccccc3o2)C(=O)c2cccc3ccccc23)c2cc(OCCCO)ccc2N1C(=O)c1ccc(-c2ccccc2)cc1 (stereo not given in full) has z-score of 1.78

Per the record, CN1C(=O)C2C=CC(C(O)C#Cc3ccccc3)N(N3CCCCC3)C2C1=O (stereo not given) has z-score of 0.0497

Per the record, "CCCC[C@@H]1C[C@H]1[C@@H](NC(=O)c1ccccc1)c1ccc(C(=O)OC)cc1" has z-score of -1.13

Per the record, "O=C(N1CCCCC1)[C@]1(Cc2ccccc2)N=C(c2ccc(OCCCO)cc2)O[C@@H]1c1ccccc1" has z-score of -0.331

Per the record, "COc1ccc(C#Cc2ccc3c(c2)[C@]2(C(=O)N3)[C@H](C(=O)Nc3nc4ccccc4s3)[C@H]3C(=O)O[C@H](c4ccccc4)[C@H](c4ccccc4)N3[C@@H]2c2ccc(O)cc2)cc1" has z-score of 0.943

Per the record, "O=C1N[C@@H](Cc2ccccc2)C(=O)N2[C@@H]1C[C@@H](C(=O)O)[C@H]2c1cccc(OCCO)c1" has z-score of 1.18

Per the record, "COCCOC(=O)N1C(=O)[C@@]2(c3cc(C#CCC(C(=O)OC)C(=O)OC)ccc31)[C@H](c1ccccc1OCCO)N1[C@H](c3ccccc3)[C@H](c3ccccc3)OC(=O)[C@H]1[C@@H]2C(=O)NC[C@H](O)c1ccccc1" has z-score of -0.036

Per the record, "[N-]=[N+]=Nc1ccccc1[C@H]1OC(c2ccc(OCCCO)cc2)=N[C@@]1(CCS(=O)(=O)c1ccccc1)C(N)=O" has z-score of 1.36

Per the record, "C=C[C@H](CO)NS(=O)(=O)c1ccc(Br)cc1" has z-score of 1.29

Per the record, "O=C(CS)NCCCCCCNC(=O)[C@@H]1C[C@@H]2C(=O)N[C@@H](Cc3ccccc3)C(=O)N2[C@@H]1c1cccc(OCCO)c1" has z-score of -1.21

Per the record, "O=C1O[C@H](c2ccccc2)[C@H](c2ccccc2)N2[C@H]1[C@@H](C(=O)N1CCCCCCC1)[C@]1(C(=O)Nc3ccc(C#CCCO)cc31)[C@H]2c1ccccc1OCCO" has z-score of 0.689

Per the record, CC1(C)[C@@H]2CC(C(O)C3C=CC4C(=O)N(Cc5ccccc5)C(=O)C4N3n3cnnc3)=C[C@H]1C2 (stereo not given in full) has z-score of -0.117

Per the record, "C=C(COC)C(=O)CC[C@@H](OC(C)=O)c1ccc(CO)o1" has z-score of 0.433

Per the record, O=C1OCCC/C=C\[C@H]2OC34C=CCN(Cc5ccccc5)C(=O)[C@H]3N(CCCO)C(=O)[C@@H]4C12 (stereo not given in full) has z-score of 0.872

Per the record, "CC(C)N1C(=O)[C@@]2(Cc3ccccc31)c1ccccc1C(=O)N(Cc1ccccc1Cl)[C@H]2c1ccc(CO)cc1" has z-score of -1.25
